Tested on: A549
Assay: Antiproliferative activity against human A549 cells assessed as cell growth inhibition incubated for 48 hrs by MTT assay
Settings: A549, 48 h
measureName: pIC50
In plain terms, pIC50 is the concentration in mol/L turned into minus its base-10 logarithm.

Examples with answers:
structure	measuredOn	pIC50
COc1ccc(-c2nc(Nc3cc(OC)c(OC)c(OC)c3)c3cccnc3n2)cc1F	A549	5.27
COc1ccc(-c2cc(-c3cc(OC)c(OC)c(OC)c3)c3nc[nH]c3c2)cn1	A549	6.54
COc1ccc(-c2cc(-c3cc(OC)c(OC)c(OC)c3)c3nc(C)[nH]c3c2)cc1F	A549	5.27
COc1ccc(Nc2nc(Nc3cc(OC)c(OC)c(OC)c3)c3ccccc3n2)cc1F	A549	5.56
COc1ccc(-c2cc(-c3cc(OC)c(OC)c(OC)c3)c3cc[nH]c3c2)cc1F	A549	5.32

// query pIC50 value for entry `COc1cc(-c2cc(-c3ccc(C)c(F)c3)cc3[nH]cnc23)cc(OC)c1OC`
6.96

May I ask what pIC50 has been recorded for `COc1ccc(-c2cc(-c3ccc(OC)c(N)c3)cc3[nH]cnc23)cc1` ?
4.96
